Taken from patent US20130177981A1.

Provide the recorded Cell-cell fusion inhibition IC50 for the entries that follow.
Target: gp41 of the envelope glycoprotein of the HIV-1 clone HxB2 (HIV-1 clone HxB2, UniProt P04578 33-856)
Experiment: cell-based or functional assay
Where no end group is shown, it is not given here. [ ]: non-standard residue; d: D form. APC = trans-3-aminopyrrolidine-4-carboxylic acid; ACPC = trans-2-aminocyclopentanecarboxylic acid; β3hR = N=C(N)NCCC[C@H](N)CC(=O)O; β3hT = C[C@@H](O)[C@H](N)CC(=O)O; β3hE = N[C@@H](CCC(=O)O)CC(=O)O; β3hA = C[C@H](N)CC(=O)O
Give bare numbers, in nM.

Answered examples (3):
{"Binder": "Ac-[β3hT]TWE[β3hA]WD[β3hR]AIA[β3hE]YA[β3hA]RIE[β3hA]LI[β3hR]AAQ[β3hE]QQ[β3hE]KNE[β3hA]AL[β3hR]EL (also called oligomer 4) [α/β-peptide 4]", "Cell-cell fusion inhibition IC50 / nM": 390}
{"Binder": "Ac-TTWEAWDRAIAEYAARIEALI[β3hR]AAQ[β3hE]QQ[β3hE]KNE[β3hA]AL[β3hR]EL (Chimera of α-peptide 3 and α/β-peptide 4; also called oligomer 5) [(α+α/β)-peptide 5]", "Cell-cell fusion inhibition IC50 / nM": 7}
{"Binder": "Ac-TTWEAWDRAIAEYAARIEALIRAAQEQQEKNEAALREL (also called T-2635; CHR α-peptide 3) [α-peptide 3]", "Cell-cell fusion inhibition IC50 / nM": 9}

Now examine the next entry.
Sample Ac-[β3hT]TWE[ACPC]WD[APC]AIA[β3hE]YA[ACPC]RIE[ACPC]LI[APC]AAQ[β3hE]QQ[β3hE]KNE[ACPC]AL[APC]EL-NH2 (Made from 9 by replacing the three β3-hArg residues with APC; also called foldamer 10) [α/β-peptide 10] — what was its Cell-cell fusion inhibition IC50?
5
